Source: ChEMBL document CHEMBL1131199

solubility by entry:
TEST PROTOCOL: The solubility in water was determined
Type: ADME

Known solubility results, listed for orientation:
| ITEM SMILES | solubility |
| --- | --- |
| CCn1c(=O)/c(=C2\Sc3ccccc3N2C)s/c1=C\c1cccc[n+]1CC.[I-] | 200 µg/mL |
| CC(=O)[O-].CCn1c(=O)/c(=C2\Sc3ccccc3N2C)s/c1=C\c1cccc[n+]1CC | > 5000 µg/mL |

// below: solubility requested for another compound
Task: Specify measured solubility for `CCn1c(=O)/c(=C2\Sc3ccccc3N2C)s/c1=C\c1cccc[n+]1CC.[Cl-]` .
Result: > 5000 µg/mL

###

TEST PROTOCOL: Lethal dose when administered intraperitoneally
Assay type: toxicity
CONDITIONS USED: mouse, ip
Reported LD50 by item:
Please reply with the bare figure in mg/kg and do not write the unit itself.

Past entries and their recorded results:
| MOLECULE | LD50 / mg/kg |
| --- | --- |
| CC(=O)[O-].CCn1c(=O)/c(=C2\Sc3ccccc3N2C)s/c1=C\c1ccc2ccccc2[n+]1CC | 30 |
| CCn1c(=O)/c(=C2\Sc3ccccc3N2C)s/c1=C\c1cccc[n+]1CC.[Cl-] | 50 |
| CC(=O)[O-].CCn1c(=O)/c(=C2\Sc3ccccc3N2C)s/c1=C\C1=[N+](CC)CCS1 | 40 |
| CC(=O)[O-].CCn1c(=O)/c(=C2\Sc3ccccc3N2C)s/c1=C\c1cccc[n+]1CC | 50 |

Task: Identify measured LD50 corresponding to `CC(=O)[O-].CCn1c(=O)/c(=C2\Sc3ccccc3N2C)s/c1=C\c1sc2ccccc2[n+]1CC`
Result: 30

Task: Supply measured LD50 of `CC(=O)[O-].CCn1c(=O)/c(=C2\Sc3ccccc3N2C)s/c1=C\c1scc(C)[n+]1CC` in your reply.
Result: 30

Task: Tell me measured LD50 for `CC(=O)[O-].CCn1c(=O)/c(=C2\Sc3ccccc3N2C)s/c1=C\c1oc2ccccc2[n+]1CC` please.
Result: 10

Task: Output measured LD50 for this item: CC(=O)[O-].CCn1c(=O)/c(=C2\Sc3ccccc3N2C)s/c1=C\C1CCC[n+]2c1sc1ccccc12 (stereo not drawn)
Result: 30

###

TEST PROTOCOL: Lethal dose when administered intravenously
Type: toxicity
CONDITIONS USED: mouse, iv
READOUT LABEL: LD50 (mg/kg)
Provide the reading as a plain figure in mg/kg.

Observe how each entry below is paired with its result.
| MOLECULE | READOUT LABEL | UNIT SYMBOL | REPORTED |
| --- | --- | --- | --- |
| CCn1c(=O)/c(=C2\Sc3ccccc3N2C)s/c1=C\c1cccc[n+]1CC.[Cl-] | LD50 | mg/kg | 20 |
| CC(=O)[O-].CCn1c(=O)/c(=C2\Sc3ccccc3N2C)s/c1=C\C1CCC[n+]2c1sc1ccccc12 (stereo not drawn) | LD50 | mg/kg | 3 |
| CC(=O)[O-].CCn1c(=O)/c(=C2\Sc3ccccc3N2C)s/c1=C\c1ccc2ccccc2[n+]1CC | LD50 | mg/kg | 10 |
| CC(=O)[O-].CCn1c(=O)/c(=C2\Sc3ccccc3N2C)s/c1=C\C1=[N+](CC)CCS1 | LD50 | mg/kg | 15 |
| CC(=O)[O-].CCn1c(=O)/c(=C2\Sc3ccccc3N2C)s/c1=C\c1sc2ccccc2[n+]1CC | LD50 | mg/kg | 5 |
| CC(=O)[O-].CCn1c(=O)/c(=C2\Sc3ccccc3N2C)s/c1=C\c1scc(C)[n+]1CC | LD50 | mg/kg | 20 |

# context switch: different molecule, same LD50
Task: Assign LD50 to the following record: `CC(=O)[O-].CCn1c(=O)/c(=C2\Sc3ccccc3N2C)s/c1=C\c1cccc[n+]1CC`
Result: 20
